Below: a set of entries, each annotated with reported Intraocular pressure, 72 hours after administration.
Tested on: cats with ocular hypertension
Experiment: Intraocular pressure (IOP) reduction in cats with ocular hypertension produced by laser trabeculoplasty
Type: in vivo, cat
Settings: dose 0.001%, one drop topical every 12 hours, 6 doses
Respond numerically, and do not add a unit to the figure.

Completed entries (count: 3):
CC(=O)O.CCN(CC)CCOC(=O)CCC/C=C\C[C@@H]1[C@@H](CC[C@@H](O)CCc2ccccc2)[C@H](O)C[C@@H]1O : 15.6
CC(=O)O.CCN(CC)CCOC(=O)CCC/C=C\C[C@@H]1[C@@H](/C=C/[C@@H](O)CCc2ccccc2)[C@H](O)C[C@@H]1O : 15.4
CC(=O)O.CCCCCC(O)C=C[C@H]1C(O)CC(O)[C@@H]1CC=CCCCC(=O)OCCN(CC)CC (stereo partly shown) : 15.5

We next turn to a different molecule, shown below.
IN: # value lookup — system cats with ocular hypertension, readout Intraocular pressure, 72 hours after administration, item CC(=O)O.CCN(CC)CCOC(=O)CCC/C=C\C[C@@H]1[C@@H](/C=C/[C@@H](O)COc2cccc(C(F)(F)F)c2)[C@H](O)C[C@@H]1O
OUT: 15.1
